Data provenance is patent US20250027068.

biological target: pooled human IgG
Documented Enzyme Activity Endpoint Assay: IgG across a set of proteins
// note: answer is a bare numeric in ng/µL

Study these solved cases before continuing.
>>> numeric_readout("PRT-1 (protein) MANQEIRYSEVTPYHVTSVWTKGVTPPANFTQGEDVFHAPYVANQGWYDITKTFNGKDDLLCGAATAGNMLHWWFDQNKDQIKRYLEEHPEKQKINFNGEQMFDVKEAIDTKNHQLDSKLFEYFKEKAFPYLSTKHLGVFPDHVIDMFINGYRLSLTNHGPTPVKEGSKDPRGGIFDAVFTRGDQSKLLTSRHDFKEKNLKEISDLIKKELTEGKALGLSHTYANVRINHVINLWGADFDSNGNLKAIYVTDSDSNASIGMKKYFVGVNSAGKVAISAKEIKEDNIGAQVLGLFTLSTGQDSWNQTN")
23
>>> numeric_readout("PRT-29 (protein) MANQEIRYSEVTPYHVTSVWTKGVTPPANFTQGEDVFHAPYVANQGWYDITKTFNGKDDLLCGAATAGNMLHWWFDQNKDQIKRYLEEHPEKQKINFNGEQMFDVKEAIDTKNHQLDSKLFEYFKEKAFPYLSTKHLGVFPDHVIDMFINGYRLSLTNHGPTPVKEGSKDPRGGIFDAVFTRGDQSKLLTSRHDFKEKNLKEISDLIKQELTEGKALGLSHTYANVRINHVINLWGADFDSNGNLEAIYVTDSDSNASIGMKKYFVGVNSAGKVAISAKEIEEDNIGAQVLGLFTLSTGQDSWNQTN")
27
>>> numeric_readout("PRT-17 (protein) MANQEIRYSEVTPYHITSVWTKGVTPPTNFTQGEDVFHAPYKANQGWYDITKTFNGKDDLLCGAATAGNMLHWWFDQNKEEIERYLKEHPEKQKINFNGEQMFDVKEAIDTKGSQTDSKLFNYFKDKAFPYLSTKHLGVFPDHVLDMFINGYRLSLTNHGPTPVKEQSKDPRGGIFDAVFTRGDQSKLLTSRHDFKEKNLKEISDLIKKELTEGKALGLSHTYANVRINHVINLWGADFDSEGNLEAIYVTDSDSNASIGMKKYFVGVNSAGKVAISAKEIKGDNIGAQVLGLFTLSTGQDIWEKTN")
34

Suppose we examine the protein PRT-593 (protein) MANQEIRYSEETPSTITSVWTKGVTPPTDFIQNEDVLHAPYIANQGWYDITKTFNGKDDLLCGAATAGNMLHWWFDQNKEQIENYLKKHPEKQKINFNGEQMFDVKEAIDTKDHQTDSALFEYFKDKAFPYLSTKHLGVFPDHVIDMFINGYRLSLTNHGPTPVKRGTKDPRGGIFDAVFTRGDQSKLLTSRHDFKEKTLNEISDLIKQELTEGKALGLSHTYANVRINHVINLWGADFNAEGNLEAIYVTDSDSNASIGMKKYYVGVNSAGKVAISAKEIEGDNIGAQVLGLFTLSTGQDIWNQTNLEHHHHHH ; what Enzyme Activity Endpoint Assay: IgG value has been reported?
0
